assay: JC-1 mitochondrial signal, unstimulated myeloma cells – cell-based, JC-1 fluorescence, RPMI8226, 24 h, 100 nL compound, profiling panel (AID 1169); details: JC-1 mitochondrial potential fluorescence, higher = more signal; note: test concentration not given here
For each entry below, report its z-score value.
Answers are plain numbers.

Solved cases (5 shown):
O=C(CS)NCCCCCNC(=O)[C@@H]1C[C@@H]2C(=O)NCC(=O)N2[C@@H]1c1cccc(OCCO)c1	-0.738
CC=CC(O)C1C=CC2C(=O)N(C)C(=O)C2N1N(c1ccccc1)c1ccccc1 (stereo not given)	-0.372
O=C1O[C@H](c2ccccc2)[C@H](c2ccccc2)N2[C@H]1[C@@H](C(=O)NC[C@H](O)c1ccccc1)[C@]1(C(=O)Nc3ccccc31)[C@H]2c1ccc(O)cc1	-0.933
C=C(C)[C@@H]1CC=C(C(O)C2C=CC3C(=O)NC(=O)C3N2Nc2ccc(Cl)cc2Cl)CC1 (stereo not given in full)	-0.934
CN(C)CCCCCCNC(=O)[C@@H]1C[C@@H]2C(=O)N[C@@H](CCCC[N+](C)(C)C)C(=O)N2[C@@H]1c1ccc(O)cc1	0.185

Dear reader, for each entry below, please note its z-score.
1. COC(=O)[C@@]1(Cc2ccccc2)[C@H]2c3cc(C(=O)N4CCCC4)n(Cc4c(CO)[nH]cc(C)c4=O)c3C[C@H]2CN1C(=O)c1ccccc1
2. C=CC[C@]12N=C(c3ccc(OCCCO)cc3)O[C@H]1c1ccccc1N(CCS(=O)(=O)c1ccccc1)C2=O
3. [N-]=[N+]=NCc1ccccc1C[C@@]1(C(=O)NCC(O)CO)N=C(c2ccc(OCCCO)cc2)O[C@@H]1c1ccccc1 (stereo not given in full)
4. Cc1ccc(S(=O)(=O)N2C[C@@H](C(=O)O)[C@H](Sc3ccccc3)C[C@H]2c2ccccc2)cc1
5. O=C1OCC=C[C@H]2OC34C=CCN(CCN5CCOCC5)C(=O)[C@H]3N(CCO)C(=O)[C@@H]4[C@@H]12 (stereo not given in full)
6. COc1cc(CO)cc(I)c1O[C@H]1C=C(C(=O)NCCO)C[C@@H](NC[C@@H]2CCCO2)[C@@H]1O
7. CC(C)N1CC=CC23O[C@@H]4C=CCOC(=O)[C@@H]4[C@H]2C(=O)N(CCCCCO)[C@@H]3C1=O (stereo not given in full)
8. CC(=O)NCCCC[C@@H]1NC(=O)[C@H]2C[C@@H](C(=O)NCCCCCNC(=O)CS)[C@@H](c3ccc(O)cc3)N2C1=O

-0.797
-1.01
-1.12
0.588
-0.299
-0.18
0.565
0.698

Give z-score for each of the items listed below.
1. COC(=O)[C@]1(CCC(=O)OC(C)(C)C)N=C(c2ccc(OCCCO)cc2)O[C@@H]1c1ccccc1
2. CC1CC/C=C\[C@H]2OC34C=CCN(Cn5nnc6ccccc65)C(=O)[C@H]3N(CCCCCO)C(=O)[C@@H]4C2C(=O)O1 (stereo not given in full)

1: -0.734; 2: 0.727
